- study.target: human GLP-1R (Homo sapiens)
- Sequence (P43220 24-463): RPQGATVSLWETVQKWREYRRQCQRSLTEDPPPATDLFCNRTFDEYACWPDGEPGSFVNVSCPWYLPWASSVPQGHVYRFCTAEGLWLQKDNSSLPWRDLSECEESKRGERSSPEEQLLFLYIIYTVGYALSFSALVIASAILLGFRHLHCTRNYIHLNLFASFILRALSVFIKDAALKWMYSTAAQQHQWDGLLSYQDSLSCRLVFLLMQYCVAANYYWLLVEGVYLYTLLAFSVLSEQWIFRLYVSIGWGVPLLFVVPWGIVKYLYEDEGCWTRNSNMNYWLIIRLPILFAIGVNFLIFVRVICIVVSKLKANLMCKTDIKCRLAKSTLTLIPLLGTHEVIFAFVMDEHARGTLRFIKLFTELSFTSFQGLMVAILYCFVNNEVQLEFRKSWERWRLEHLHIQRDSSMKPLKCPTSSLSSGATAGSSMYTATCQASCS
- test.method.notes: Human GLP-1 Receptor HEK293 cell cAMP assay, 104 fmol/mg GLP-1R expression density
- Assay type: cell-based
- Design: expressed in transfected cells; host or cells: HEK293 clonal cell line
- test.context: HEK293 cell line with 104 fmol/mg expression density of GLP-1R; geometric mean; read-out: EC50 nM (SEM, n), intracellular cAMP response, relative EC50
measure.name: EC50 (nM)

> print(dat)
                                   molecule  meas.value
1  COCCOc1cc(C(=O)O)cc2c1nc(Cc1ccc3cc1COCCc1cc(ccc1C#N)COc1cccc-3n1)n2C[C@@H]1CCO1        4.62

[I] N#Cc1ccc2cc1CCOCc1cc(ccc1Cc1nc3ccc(C(=O)O)cc3n1C[C@@H]1CCO1)-c1cccc(n1)OC2
[II] N#Cc1ccc2c(c1)CCOCc1cc(ccc1Cc1nc3ccc(C(=O)O)cc3n1C[C@@H]1CCO1)-c1cccc(n1)OC2
For I and II , which recorded EC50 is lower? Answer format: the label of the selected item.
I
(I: 133 nM, II: 197 nM)
